target: 5-hydroxytryptamine receptor 1A (Homo sapiens) (UniProt P08908); assay: Displacement of [3H]-Way100635 from human 5HT1A receptor expressed in stable CHO cell membranes by radioligand binding assay relative to control; parameters: concentration or dose not given beside the values; conditions: concentration not given here
Sequence (P08908 whole entry): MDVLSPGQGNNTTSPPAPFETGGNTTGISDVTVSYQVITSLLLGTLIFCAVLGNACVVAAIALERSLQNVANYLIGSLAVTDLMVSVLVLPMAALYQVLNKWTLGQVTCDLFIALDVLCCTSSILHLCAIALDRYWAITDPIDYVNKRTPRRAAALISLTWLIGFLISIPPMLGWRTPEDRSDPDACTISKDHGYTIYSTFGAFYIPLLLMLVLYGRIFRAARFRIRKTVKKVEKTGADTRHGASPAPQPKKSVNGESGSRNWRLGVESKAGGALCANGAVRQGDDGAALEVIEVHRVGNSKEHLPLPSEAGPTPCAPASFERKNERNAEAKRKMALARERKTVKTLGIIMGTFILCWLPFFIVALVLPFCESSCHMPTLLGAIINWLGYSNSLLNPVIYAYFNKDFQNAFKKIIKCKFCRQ
observable: inhibition (%)
A number alone suffices; assume %.

Task: Determine from records and report inhibition for OC1(c2ccc(Cl)c(C(F)(F)F)c2)CCN(CCCN(c2ccc(F)cc2)c2ccc(F)cc2)CC1
Result: 94.2

Task: Determine from records and report inhibition for OC1(c2ccc(Cl)c(C(F)(F)F)c2)CCN(CCCCN(c2ccc(F)cc2)c2ccc(F)cc2)CC1
Result: 82.2

Task: Determine from records and report inhibition for OC1(c2ccc(Cl)c(C(F)(F)F)c2)CCN(CCCC(c2ccccc2)c2ccccc2)CC1
Result: 97.2

Task: Determine from records and report inhibition for OC1(c2ccc(Cl)c(C(F)(F)F)c2)CCN(CCCC(c2ccc(F)cc2)c2ccc(F)cc2)CC1
Result: 100
